Target: JAK3 (Homo sapiens (Human), UniProt P52333)
Sequence (P52333 822-1111): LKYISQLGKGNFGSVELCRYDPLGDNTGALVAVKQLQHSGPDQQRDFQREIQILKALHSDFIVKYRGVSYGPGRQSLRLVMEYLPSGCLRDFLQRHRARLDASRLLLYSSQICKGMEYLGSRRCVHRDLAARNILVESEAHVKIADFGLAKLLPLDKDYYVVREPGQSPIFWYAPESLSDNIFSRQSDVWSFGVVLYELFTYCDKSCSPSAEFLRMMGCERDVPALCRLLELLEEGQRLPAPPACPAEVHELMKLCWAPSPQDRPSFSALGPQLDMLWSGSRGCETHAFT
Assay: JAK Caliper Enzyme Assay at 1 mM ATP, JAK3
Type: biochemical
reported_endpoint: IC50

Worked examples follow.
Cn1ncc(-c2cc3ncccc3c(-c3ccn(C4(CC#N)CC(C#N)C4)n3)n2)c1N (stereo not drawn)	> 10 µM
CCn1cc(-c2cc3ncccc3c(-c3ccn(C4(CC#N)CN(CC(F)(F)F)C4)n3)n2)cn1	9.05 µM

Provide reported IC50 for each item, in the same order as listed.
1. Cc1cc(-c2cc3ncccc3c(-c3ccn(C4(CC#N)CN(CC(F)(F)F)C4)n3)n2)n[nH]1
2. Cc1cc(-c2nc(-c3cc[nH]n3)cc3ncccc23)nn1[C@]1(CC#N)C[C@H](C#N)C1
3. CS(=O)(=O)N1CC(CC#N)(n2ccc(-c3nc(-c4cnn5cccnc45)cc4ncccc34)n2)C1

> 10 µM
7.79 µM
> 10 µM

Quick one: IC50 for "N#CC[C@]1(n2ccc(-c3nc(-c4cccc(CO)n4)cc4ncccc34)n2)C[C@@H](C#N)C1" ?
> 10 µM

* * *

Biological target: TYK2 (Homo sapiens (Human))
Sequence (P29597 897-1176): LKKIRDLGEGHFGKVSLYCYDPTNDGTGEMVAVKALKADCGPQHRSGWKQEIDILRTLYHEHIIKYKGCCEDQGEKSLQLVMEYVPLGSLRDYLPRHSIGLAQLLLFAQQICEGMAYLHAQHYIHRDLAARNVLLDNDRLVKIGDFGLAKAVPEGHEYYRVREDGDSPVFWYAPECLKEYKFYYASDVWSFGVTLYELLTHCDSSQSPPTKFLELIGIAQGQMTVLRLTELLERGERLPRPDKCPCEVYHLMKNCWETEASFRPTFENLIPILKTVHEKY
Experiment: JAK Caliper Enzyme Assay at 1 mM ATP, TYK2
Format: biochemical
I'd appreciate it if you could supply pIC50 values for the items below.
One number for each entry, as −log10 of the molar value.

Known pIC50 results, listed for orientation:
CO[C@H]1C[C@](CC#N)(n2ccc(-c3nc(-c4c[nH]nc4N)cc4ncccc34)n2)C1 [Example 95]	7.66
CC(C)(O)[C@H]1C[C@@](CC#N)(n2ccc(-c3nc(-c4cn[nH]c4)cc4ncccc34)n2)C1	6.38
N#CCC1(n2ccc(-c3nc(-c4cc[nH]n4)cc4ncccc34)n2)CN(CC(F)(F)F)C1	7.64
CS(=O)(=O)c1ccc(-c2cc3ncccc3c(-c3ccn(C4(CC#N)CN(S(C)(=O)=O)C4)n3)n2)cn1	7.30

In the following, a different compound is considered.
Return pIC50 measured with TYK2 (Homo sapiens (Human)) given this compound: "N#CC[C@]1(n2ccc(-c3nc(-c4ccnc(C(N)=O)c4)cc4ncccc34)n2)C[C@H](C#N)C1"
7.44

* * *

Molecular target: TYK2 (Homo sapiens (Human))
Assay: JAK Caliper Enzyme Assay at 1 mM ATP, TYK2
Format: biochemical
Mark each entry class 1 if its IC50 sits below 50 nM, and class 0 for all others.

Please review the following examples before continuing.
N#CC[C@]1(n2ncc(-c3cc(-c4ncc(CO)s4)cc4ncccc34)n2)C[C@H](C#N)C1	class 0
N#CCC1(n2ccc(-c3nc(-c4cnc5cc[nH]c5c4)cc4ncccc34)n2)CN(CC(F)(F)F)C1	class 1
C[C@]1(C#N)C[C@@](CC#N)(n2ccc(-c3nc(-c4ccnc(N)c4)cc4ncccc34)n2)C1	class 1

Here is the next item to consider.
I'd appreciate it if you could check whether "N#CC[C@]1(n2ncc(-c3cc(-c4ccc(N)nc4)cc4ncccc34)n2)C[C@H](C#N)C1" has IC50 smaller than 50 nM.
class 0

* * *

Biological target: JAK1 (Homo sapiens (Human), UniProt P23458)
Sequence (P23458 875-1153): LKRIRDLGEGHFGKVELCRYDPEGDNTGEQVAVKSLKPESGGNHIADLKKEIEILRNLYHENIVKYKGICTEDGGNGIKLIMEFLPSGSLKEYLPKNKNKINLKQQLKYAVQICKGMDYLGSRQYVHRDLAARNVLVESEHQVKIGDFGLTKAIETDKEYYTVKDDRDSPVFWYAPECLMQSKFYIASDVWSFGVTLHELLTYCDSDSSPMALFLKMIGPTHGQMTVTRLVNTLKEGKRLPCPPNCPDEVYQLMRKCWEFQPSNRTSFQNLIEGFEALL
Test: JAK Caliper Enzyme Assay at 1 mM ATP, JAK1
Assay type: biochemical
reported_endpoint: IC50

Guide cases for IC50, answers given:
CS(=O)(=O)N1CC(CC#N)(n2ccc(-c3nc(-c4ccc(F)cc4O)cc4ncccc34)n2)C1	> 10 µM
N#CCC1(n2ccc(-c3nc(-c4ccncc4F)cc4ncccc34)n2)CN(CC(F)(F)F)C1	> 10 µM
Cn1nc(-c2cc3ncccc3c(-c3ccn([C@]4(CC#N)C[C@@H](C#N)C4)n3)n2)cc1CO	> 10 µM
N#CC[C@]1(n2ccc(-c3nc(-c4ccc(N)c(C(N)=O)n4)cc4ncccc34)n2)C[C@H](C#N)C1	1.94 µM
N#CCC1(n2ccc(-c3nc(-c4ccn[nH]4)cc4ncccc34)n2)CC(C(N)=O)C1 (stereo not drawn)	> 10 µM

Hey, quick one: what's IC50 for each of these?
1. Cn1ncc(-c2cc3ncccc3c(-c3ccn(C4(CC#N)CN(CC(F)(F)F)C4)n3)n2)n1
2. Cc1nc(-c2cc(-c3cnn([C@]4(CC#N)C[C@H](C#N)C4)n3)c3cccnc3c2)c[nH]1

["> 10 µM", "0.326 µM"]

Provide the reported IC50 of each entry below, same order.
1. N#CCC1(n2cc(-c3nc(-c4cn[nH]c4)cc4ncccc34)cn2)CN(CC(F)(F)F)C1
2. CS(=O)(=O)N1CC(CC#N)(n2ccc(-c3nc(-c4ccc(=O)[nH]c4)cc4ncccc34)n2)C1
3. CCN1CC(CC#N)(n2ccc(-c3nc(-c4cc(N)n(C)n4)cc4ncccc34)n2)C1
4. CC(=O)N1CC2(C1)CC(CC#N)(n1ccc(-c3nc(-c4cc[nH]n4)cc4ncccc34)n1)C2
5. CCn1cc(-c2cc3ncccc3c(-c3ccn(C4(CC#N)CC(C#N)C4)n3)n2)cn1 (stereo not drawn)
6. N#CCC1(n2ccc(-c3nc(-c4ccc(O)nc4)cc4ncccc34)n2)CN(CC(F)(F)F)C1

0.035 µM
0.22 µM
> 10 µM
> 10 µM
0.043 µM
0.384 µM

* * *

Molecular target: JAK3 (Homo sapiens (Human))
Assay: JAK Caliper Enzyme Assay at 1 mM ATP, JAK3
Assay type: biochemical
Consider the following molecules; for each one, report its IC50.

Observe how each entry below is paired with its result.
Cn1cc(-c2cc3ncccc3c(-c3cc(C4(CC#N)CN(CC#N)C4)no3)n2)cn1	> 10 µM
N#CC[C@]1(n2ncc(-c3cc(-c4nc(CO)cs4)cc4ncccc34)n2)C[C@H](C#N)C1	> 10 µM
N#CCC1(n2ccc(-c3nc(-c4cn(C5COC5)cn4)cc4ncccc34)n2)CN(CC(F)(F)F)C1	> 10 µM

Hey, quick one: what's IC50 for each of these?
1. COc1ncccc1-c1cc2ncccc2c(-c2ccn(C3(CC#N)CN(S(C)(=O)=O)C3)n2)n1
2. CS(=O)(=O)N1CC(CC#N)(n2ncc(-c3cc(-c4ccc(N)nc4)cc4ncccc34)n2)C1
3. Cn1ccc(-c2cc(-c3cnn(C4(CC#N)CN(S(C)(=O)=O)C4)n3)c3cccnc3c2)n1
4. CS(=O)(=O)N1CC(CC#N)(n2ccc(-c3nc(-c4ccc(F)cc4O)cc4ncccc34)n2)C1
5. Cc1n[nH]cc1-c1cc2ncccc2c(-c2ccn([C@]3(CC#N)C[C@@H](C#N)C3)n2)n1
6. N#CCC1(n2ccc(-c3nc(-c4cncnc4)cc4ncccc34)n2)CN(CC(F)(F)F)C1

["> 10 µM", "> 10 µM", "> 10 µM", "> 10 µM", "> 10 µM", "> 10 µM"]

* * *

Biological target: JAK3 (Homo sapiens (Human), UniProt P52333)
Assay: JAK Caliper Enzyme Assay at 1 mM ATP, JAK3
Type: biochemical
For each record, write down the corresponding IC50.

CS(=O)(=O)c1ccc(-c2cc3ncccc3c(-c3ccn(C4(CC#N)CN(S(C)(=O)=O)C4)n3)n2)cn1	> 10 µM

I have 3 compounds here; please give me IC50 for each one.
1. N#CCC1(n2ccc(-c3nc(-c4ccncc4F)cc4ncccc34)n2)CN(CC(F)(F)F)C1
2. CCn1cc(-c2cc3ncccc3c(-c3ccn(C4(CC#N)CC(C#N)C4)n3)n2)cn1 (stereo not shown)
3. Cn1cc(-c2cc(-c3cnn(C4(CC#N)CN(CC#N)C4)c3)c3cccnc3c2)cn1

["> 10 µM", "0.634 µM", "> 10 µM"]

* * *

So I've got a bunch of molecules here, and I need their IC50 values.
Molecular target: JAK1 (Homo sapiens (Human))
Assay: JAK Caliper Enzyme Assay at 1 mM ATP, JAK1
Format: biochemical
Give bare numbers, in nM.

CCS(=O)(=O)N1CC(CC#N)(n2ccc(-c3nc(-c4cnn(C)c4)cc4ncccc34)n2)C1	1350
CO[C@H]1C[C@@](CC#N)(n2cc(-c3nc(-c4cc(CO)n[nH]4)cc4ncccc34)cn2)C1	407
CO[C@H]1C[C@@](CC#N)(n2ccc(-c3nc(-c4ccc(=O)[nH]c4)cc4ncccc34)n2)C1	1340
CO[C@H]1C[C@](CC#N)(n2ccc(-c3nc(-c4c[nH]nc4N)cc4ncccc34)n2)C1 [Example 96]	790
N#CCC1(n2ccc(-c3nc(-c4cc(CO)[nH]n4)cc4ncccc34)n2)CC(C#N)C1 (stereo not drawn)	292

Dear reader, for each entry below, please note its IC50.
1. C[C@]1(C#N)C[C@@](CC#N)(n2ncc(-c3cc(-c4cn[nH]c4N)cc4ncccc34)n2)C1
2. C[C@]1(C#N)C[C@@](CC#N)(n2ccc(-c3nc(-c4cc[nH]n4)cc4ncccc34)n2)C1
3. Cc1cn([C@]2(CC#N)C[C@@H](C#N)C2)nc1-c1nc(-c2cn[nH]c2N)cc2ncccc12
4. CS(=O)(=O)N1CC(CC#N)(n2ncc(-c3cc(-c4cc[nH]n4)cc4ncccc34)n2)C1
5. N#CC[C@]1(n2ncc(-c3cc(-c4ncc(CO)s4)cc4ncccc34)n2)C[C@H](C#N)C1
6. Cn1cc(-c2cc3ncccc3c(-c3ccn(C4(CC#N)CN(S(N)(=O)=O)C4)n3)n2)cn1

1: 2590; 2: 569; 3: 3480; 4: 594; 5: 3340; 6: 311

Please give IC50, item by item, for the list that follows.
1. CCn1cc(-c2cc3ncccc3c(-c3ccn([C@]4(CC#N)C[C@@H](C#N)C4)n3)n2)cn1
2. CC(C)(O)[C@H]1C[C@](CC#N)(n2ccc(-c3nc(-c4cc[nH]n4)cc4ncccc34)n2)C1
3. Cc1ncc(-c2cc3ncccc3c(-c3ccn(C4(CC#N)CN(S(C)(=O)=O)C4)n3)n2)cc1N

1. 409
2. 2770
3. 9340
